Data credit: patent US20160137713A1

Entries and their measured ELISA (OD450) follow.
ASSAYED SYSTEM: soluble human FcRn (human) (UniProt P55899)
Sequence (P55899 24-297, chain 1 of 2): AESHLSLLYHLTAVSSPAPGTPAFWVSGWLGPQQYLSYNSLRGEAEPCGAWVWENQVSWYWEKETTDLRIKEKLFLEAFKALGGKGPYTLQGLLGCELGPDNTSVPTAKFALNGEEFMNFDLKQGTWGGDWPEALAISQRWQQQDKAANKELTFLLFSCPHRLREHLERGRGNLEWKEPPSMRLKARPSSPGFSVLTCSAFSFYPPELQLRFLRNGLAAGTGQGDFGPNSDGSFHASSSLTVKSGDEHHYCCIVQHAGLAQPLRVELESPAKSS
Sequence (P61769 21-119, chain 2 of 2, further chain): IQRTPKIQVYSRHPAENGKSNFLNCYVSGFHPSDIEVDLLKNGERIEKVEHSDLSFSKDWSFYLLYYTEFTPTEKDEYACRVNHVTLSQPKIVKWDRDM
METHOD DESCRIPTION: ELISA on coated shFcRn, scFv 100 ng/mL, pH 7.4
MEASURED PROPERTY: ELISA (OD450)

- A12-E04 (scFv, V domains shown, not shown: small tags and cut ends, linker not given) VH: EVQLVESGGGLVQPGRSLRLSCAASGFTFDEYGMHWVRQAPGKGLEWVSGVSWNSGSIAYADSVRGRFTISRDNAKNSLYLQMNSLRAEDTALYYCAKGRLFDVWGQGTTVTVSS VL: QSALTQPASVSGSPGQSITISCTGSSSDVGGYNYVSWYQQHPGKAPKLMIYDVTKRPSGVSNRFSGSKSGNTASLTISGLQAEDEADYYGSYSNSNFYVFGTGTKVTVLG: 1.29
- A12-E05 (scFv, V domains shown, not shown: small tags and cut ends, scFv linker not given) VH: EVQLVESGGGLVQPGRSLRLSCAASGFTFDEYGMHWVRQAPGKGLEWVSGVSWNSGSIAYADSVRGRFTISRDNAKNSLYLQMNSLRAEDTALYYCAKGRILDVWGQGTTVTVSS VL: QSALTQPASVSGSPGQSITISCTGSSSDVGGYNYVSWYQQHPGKAPKLMIYDVTKRPSGVSNRFSGSKSGNTASLTISGLQAEDEADYYGSYNNSTFYVFGTGTKVTVLG: 1.8
- A12-E01 (scFv, V domains shown, not shown: small tags and cut ends, linker not given) VH: EVQLVESGGGLVQPGRSLRLSCAASGFTFDEYGMHWVRQAPGKGLEWVSGVSWNSGSIAYADSVRGRFTISRDNAKNSLYLQMNSLRAEDTALYYCAKSRSMDVWGQGTTVTVSS VL: QSALTQPASVSGSPGQSITISCTGSSSDVGGYNYVSWYQQHPGKAPKLMIYDVTKRPSGVSNRFSGSKSGNTASLTISGLQAEDEADYYGSYSNNNFYVFGTGTKVTVLG: 1.05
- A12-H04 (scFv, V domains shown, not shown: small tags and cut ends, linker not given) VH: EVQLVESGGGLVQPGRSLRLSCAASGFTFDEYGMHWVRQAPGKGLEWVSGVSWNSGSIAYADSVRGRFTISRDNAKNSLYLQMNSLRAEDTALYYCAKGRLLDVWGQGTTVTVSS VL: QSALTQPASVSGSPGQSITISCTGSSSDVGGYNYVSWYQQHPGKAPKLMIYDVTKRPSGVSNRFSGSKSGNTASLTISGLQAEDEADYYGAYSNTNFYVFGTGTKVTVLG: 1.57
